B1: POU domain, class 3, transcription factor 2, residues 356 to 411; numbered along this chain, P20265 (parent)
chain: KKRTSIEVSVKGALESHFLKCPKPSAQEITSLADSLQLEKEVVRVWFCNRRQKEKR

Variants of: B1
test.method.notes: abundance fitness (aPCA) (normalised: wild type 0, dead -1); higher = more abundant; growth selection in yeast, the domain comes from the species named
experimental.conditions: Homo sapiens
Provide the reported abundance fitness of each item.
The response must contain the number and no unit.

Ask: Report measured abundance fitness; entry is C48L
Reply: -0.059

Ask: Give abundance fitness for the following variant: S5F
Reply: -0.053

Ask: Query abundance fitness for D34N
Reply: 0.148

Ask: Tell us which abundance fitness value is on record for W46E
Reply: -0.946

Ask: Tell me its abundance fitness given R50D as the entry.
Reply: -0.849

Ask: Output abundance fitness of K11R
Reply: -0.126

Ask: Supply reported abundance fitness belonging to this variant: V42C
Reply: -0.01

Ask: Consider the variant S9K and give its recorded abundance fitness.
Reply: 0.109

Ask: Specify measured abundance fitness for K11M .
Reply: -0.041

Ask: Respond only with abundance fitness recorded for V42S
Reply: -0.179

Ask: State its abundance fitness for this variant: V8H
Reply: 0.128

Ask: Note abundance fitness for the variant shown: R51F
Reply: -0.354

Ask: Answer with reported abundance fitness of P24E
Reply: -0.846

Ask: Provide one value: measured abundance fitness of L32G
Reply: -0.834

Ask: Please look at this variant and report its abundance fitness: H17L
Reply: -0.292

Ask: Answer with the recorded abundance fitness of K55G only.
Reply: -0.029

Ask: Give reported abundance fitness value for P24G
Reply: -0.691

Ask: Specify abundance fitness for Q37M and stop.
Reply: -0.151

Ask: Give abundance fitness for L32Y
Reply: -0.831

Ask: Please supply the value of reported abundance fitness for the item T4V
Reply: -0.095

Ask: Name the recorded abundance fitness of the variant listed here: A33T
Reply: -0.83

Ask: Report abundance fitness, nothing else, for this variant: F18T
Reply: -1.2
